Tested on: autologous cell line transformed with EBV / 11C2 CTL
Assay: Peptide recognition assay: chromium release, lysis by 11C2 CTL of peptide-incubated autologous EBV-transformed cells
Type: cell-based, human
Details: peptides carrying the HLA-A*0201 binding motif, 18 peptides assayed
OBSERVATION TYPE: recognition by 11C2 CTL

INSERT INTO measurements (substance, measured_target, result_value) VALUES
  ('SLFEGIDIY [SEQ ID NO: 1, mutated hsp70-2 nonapeptide, amino acids 286 to 294, isoleucine at position 293]', 'autologous cell line transformed with EBV / 11C2 CTL', 'recognized'),
  ('wild-type nonapeptide 286-294: wild-type hsp70-2 nonapeptide, amino acids 286-294 (SLFEGIDFY; listed as Homo sapiens) [reference compound]', 'autologous cell line transformed with EBV / 11C2 CTL', 'not'),
  ('SLFEGIDIYT [SEQ ID NO: 2, mutated hsp70-2 decapeptide 286-295 carrying the mutant isoleucine residue at position 8]', 'autologous cell line transformed with EBV / 11C2 CTL', 'recognized');

Entry source: patent US6855802B1
